From: ChEMBL document CHEMBL1127460

Biological target: Ornithine decarboxylase (Mus musculus) (UniProt P00860)
Sequence (P00860 whole entry): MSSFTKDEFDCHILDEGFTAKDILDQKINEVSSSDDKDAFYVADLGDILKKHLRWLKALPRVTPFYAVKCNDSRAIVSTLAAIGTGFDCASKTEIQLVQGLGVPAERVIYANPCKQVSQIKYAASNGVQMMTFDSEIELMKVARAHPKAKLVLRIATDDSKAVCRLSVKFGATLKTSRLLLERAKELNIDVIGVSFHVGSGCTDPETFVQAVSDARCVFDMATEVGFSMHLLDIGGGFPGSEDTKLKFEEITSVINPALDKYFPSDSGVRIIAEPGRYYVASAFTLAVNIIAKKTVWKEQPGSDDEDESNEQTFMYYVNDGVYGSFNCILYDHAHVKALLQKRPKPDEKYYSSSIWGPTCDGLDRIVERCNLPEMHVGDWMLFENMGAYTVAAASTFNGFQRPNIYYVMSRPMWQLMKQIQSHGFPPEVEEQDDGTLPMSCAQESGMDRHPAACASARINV
Experiment: Inhibition of TPA-induced ODC activity as percentage of the average no. of papillomas / mouse in groups of control mice was determined using papilloma assay
Format: functional
Design: concentration or dose not given beside the values
measuredAttribute: Control (%)
Numeric only. Scale: %

{"compound": "C=CCC1CC(C)(C)C(/C=C/C(C)=C/C=C/C(C)=C/C(=O)OC)=C(C)C1=O (stereo not drawn)", "measuredAttribute": "Control", "numericReadout": 42}
{"compound": "COC(=O)/C=C(C)/C=C/C=C(C)/C=C/C1=C(C)C(=O)C(C/C=C/c2ccccc2)CC1(C)C (stereo not drawn)", "measuredAttribute": "Control", "numericReadout": 20}
{"compound": "CC1=C(/C=C/C(C)=C/C=C/C(C)=C/C(=O)O)C(C)(C)CC(C/C=C/c2ccccc2)C1=O (stereo not drawn)", "measuredAttribute": "Control", "numericReadout": 39}
{"compound": "CC1=C(/C=C/C(C)=C/C=C/C(C)=C/C(=O)O)C(C)(C)CCC1", "measuredAttribute": "Control", "numericReadout": 16}
{"compound": "CC1=C(/C=C/C(C)=C/C=C/C(C)=C/C(=O)O)C(C)(C)CC(C)C1=O (stereo not drawn)", "measuredAttribute": "Control", "numericReadout": 29}
{"compound": "C#CCC1CC(C)(C)C(/C=C/C(C)=C/C=C/C(C)=C/C(=O)O)=C(C)C1=O (stereo not drawn)", "measuredAttribute": "Control", "numericReadout": 64}
{"compound": "COC(=O)/C=C(C)/C=C/C=C(C)/C=C/C1=C(C)C(=O)CCC1(C)C", "measuredAttribute": "Control", "numericReadout": 25}
{"compound": "CCC1CC(C)(C)C(/C=C/C(C)=C/C=C/C(C)=C/C(=O)OC)=C(C)C1=O (stereo not drawn)", "measuredAttribute": "Control", "numericReadout": 68}

Next item in the queue.
Asked: Quick one: Control of COC(=O)/C=C(C)/C=C/C=C(C)/C=C/C1=C(C)C(=O)C(C)CC1(C)C (stereo not drawn) ?
Given back: 27
